Source: patent US9221796B2

Listed below: Ki values for each entry.
# TESTED ON: NR2B-subtype NMDA receptors (Rattus norvegicus (Rat), UniProt P35439+Q00960)
# Sequence (Q00960 27-1482, other chains not shown): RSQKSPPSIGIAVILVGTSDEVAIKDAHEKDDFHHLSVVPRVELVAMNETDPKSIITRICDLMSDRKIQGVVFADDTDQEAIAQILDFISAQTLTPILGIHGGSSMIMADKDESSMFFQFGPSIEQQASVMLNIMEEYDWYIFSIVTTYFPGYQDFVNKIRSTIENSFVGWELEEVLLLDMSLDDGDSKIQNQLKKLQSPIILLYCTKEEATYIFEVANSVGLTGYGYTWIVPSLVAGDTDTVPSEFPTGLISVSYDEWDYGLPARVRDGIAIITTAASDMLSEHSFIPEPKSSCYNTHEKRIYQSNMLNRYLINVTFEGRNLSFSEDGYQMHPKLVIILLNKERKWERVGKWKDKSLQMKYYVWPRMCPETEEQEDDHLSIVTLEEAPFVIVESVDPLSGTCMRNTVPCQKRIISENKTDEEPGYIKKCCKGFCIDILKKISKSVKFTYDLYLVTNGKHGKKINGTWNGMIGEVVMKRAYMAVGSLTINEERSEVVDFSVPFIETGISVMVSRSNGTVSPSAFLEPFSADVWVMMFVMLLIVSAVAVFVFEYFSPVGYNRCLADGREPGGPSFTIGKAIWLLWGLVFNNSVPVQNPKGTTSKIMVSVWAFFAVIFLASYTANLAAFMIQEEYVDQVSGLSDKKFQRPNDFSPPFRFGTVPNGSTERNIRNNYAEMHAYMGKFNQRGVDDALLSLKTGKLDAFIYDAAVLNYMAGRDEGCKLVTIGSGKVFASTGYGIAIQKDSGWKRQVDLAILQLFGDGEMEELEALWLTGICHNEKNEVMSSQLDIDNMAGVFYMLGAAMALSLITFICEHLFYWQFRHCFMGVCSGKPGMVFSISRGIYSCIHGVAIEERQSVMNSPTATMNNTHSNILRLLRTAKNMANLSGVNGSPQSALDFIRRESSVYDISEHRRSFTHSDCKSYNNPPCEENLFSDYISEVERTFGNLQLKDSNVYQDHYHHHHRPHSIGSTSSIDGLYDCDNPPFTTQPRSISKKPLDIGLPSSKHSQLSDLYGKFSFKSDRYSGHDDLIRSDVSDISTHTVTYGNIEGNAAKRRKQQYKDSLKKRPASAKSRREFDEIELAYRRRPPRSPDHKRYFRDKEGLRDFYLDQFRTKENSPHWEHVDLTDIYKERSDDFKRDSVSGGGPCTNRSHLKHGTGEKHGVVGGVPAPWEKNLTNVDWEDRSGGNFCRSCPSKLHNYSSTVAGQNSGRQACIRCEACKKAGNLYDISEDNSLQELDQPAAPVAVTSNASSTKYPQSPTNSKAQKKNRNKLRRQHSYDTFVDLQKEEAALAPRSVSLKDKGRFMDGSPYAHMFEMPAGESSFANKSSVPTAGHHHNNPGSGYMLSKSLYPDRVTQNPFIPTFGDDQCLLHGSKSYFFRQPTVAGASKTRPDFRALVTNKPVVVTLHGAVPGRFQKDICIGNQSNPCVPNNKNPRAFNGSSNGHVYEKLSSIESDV
# ASSAY: Radioligand binding assay (3H Ro 25-6981 competition, forebrain membranes)
# MEASUREMENT PARAMETERS: 3H Ro 25-6981 (4 nM), read-out: NR2B Binding Ki
Response body: numeric value in nM, unit text excluded.

Cc1ccc(CN2CCC(N3CCC(c4ccc(O)cc4)CC3)C2=O)cc1F (centres unmarked) [Example 19] :: 3.9

The compound listed as C[C@@H](c1ccc(F)cc1)N1CCC(N2CCC(c3ccc(O)cc3)C(F)(F)C2)C1=O (single isomer, unassigned) [Example 56, P-4] shows Ki equal to 660

The compound listed as Cc1ccc(CN2CC[C@H](N3CC(c4ccc(O)cc4)C3)C2=O)cc1F [Example 21b] shows Ki equal to 410

The compound listed as O=C1C(N2CCC(c3ccc(O)cc3)C(F)(F)C2)CCN1Cc1ccc(Cl)c(Cl)c1 (centres unmarked) [Example 109] shows Ki equal to 290
